tested on: K562; assay: cell viability relative to vehicle control; higher = less cytotoxic; conditions: 10 µM; SRSF2 genotype: SRSF2 wt/wt;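 further: after 48 h exposure read by CellTiter-Glo luminescence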
Counter-ions that a name gives are not always drawn.
observation type: cell viability

Here are 6 compounds. What values of cell viability were reported for them?
1. C[C@@H]1CC[C@]2(C(=O)O[C@@H]3O[C@H](CO)[C@@H](O)[C@H](O)[C@H]3O)CC[C@]3(C)C(=CC[C@@H]4[C@@]5(C)CC[C@H](O)[C@@](C)(CO)[C@@H]5CC[C@]43C)[C@@H]2[C@]1(C)O [Pedunculoside]
2. Cc1cc(F)c(C(=O)Nc2cccc(-c3nncn3C(C)C)n2)cc1-n1cnc(C2CC2)c1
3. O=c1cc(-c2ccc(O)cc2)oc2c([C@@H]3O[C@H](CO)[C@@H](O)[C@H](O)[C@H]3O)c(O)cc(O)c12
4. Cc1cc(O)c(-c2ccc([C@@H](C)CN)cc2)c2c1[nH]c(=O)c1sccc12 [OTS514 hydrochloride]
5. COc1c(N2C[C@@H]3CCCN[C@@H]3C2)c(F)cc2c(=O)c(C(=O)O)cn(C3CC3)c12 [Moxifloxacin hydrochloride]
6. O=C(N[C@H](CO)[C@H](O)c1ccc([N+](=O)[O-])cc1)C(Cl)Cl

113%
82%
101%
21.7%
93.3%
94.8%

---

test system: K562; assay: cell viability relative to vehicle control; higher = less cytotoxic; settings: 10 µM; SRSF2 genotype: SRSF2 wt/wt
Counter-ions that a name gives are not always drawn.
Assign cell viability to each entry below.
Give bare numbers, in %.

// worked examples, cell viability included
- compound: "O=C(O)CCC(=O)Nc1ccc(Br)cn1"
  assayed target: "K562"
  cell viability (%): 106
- compound: "Cc1nc2cccc(N)c2c(=O)n1C1CCC(=O)NC1=O (configuration not stated) [Avadomide(CC-122)]"
  assayed target: "K562"
  cell viability (%): 111
- compound: "CCn1c(=O)c(-c2ccc(-c3cncs3)cc2Cl)cc2cnc(Nc3ccc(N4CCN(C)CC4)cc3)nc21"
  assayed target: "K562"
  cell viability (%): 74.6
- compound: "CCOC(=O)n1ccn(C)c1=S"
  assayed target: "K562"
  cell viability (%): 113
- compound: "COc1cc2oc(-c3ccc(O)cc3)cc(=O)c2c(O)c1[C@@H]1O[C@H](CO)[C@@H](O)[C@H](O)[C@H]1O[C@@H]1O[C@H](CO)[C@@H](O)[C@H](O)[C@H]1O"
  assayed target: "K562"
  cell viability (%): 104

Count: 4. Required value per item: cell viability.
1. CN(C)C(=N)NC(=N)N [Metformin hydrochloride (Glucophage)]
2. COc1cc(NS(=O)(=O)c2ccc(N)cc2)nc(OC)n1 [Sulphadimethoxine]
3. CC1(C)CC[C@]2(C(=O)O)CC[C@]3(C)C(=CC[C@@H]4[C@@]5(C)CC[C@H](O[C@@H]6O[C@H](C(=O)O)[C@@H](O)[C@H](O[C@@H]7OC[C@@H](O)[C@H](O)[C@H]7O)[C@H]6O)C(C)(C)[C@@H]5CC[C@]43C)[C@@H]2C1
4. CC1=CCC(=C(C)C)C(=O)CC(C)=CCC1

110
95.9
88.8
111

---

tested on: MARIMO; experiment: cell viability relative to vehicle control; higher = less cytotoxic; conditions: 10 µM; SRSF2 genotype: SRSF2 wt/wt
Counter-ions that a name gives are not always drawn.
# strict inequality: cell viability < 90% yields y, everything else yields n

Examples with answers:
- compound: "O=C(c1ccc(F)cc1)N1CCCC(c2nc(-c3ccc(F)cc3)no2)C1 (stereo not drawn)"
  class name: "y"
- compound: "Nc1ncnc2c1ncn2[C@@H]1O[C@H](CO)C[C@H]1O [Cordycepin]"
  class name: "n"
- compound: "C[C@@H]1CC[C@@]2(NC1)O[C@H]1C[C@H]3[C@@H]4CC=C5C[C@@H](O[C@@H]6O[C@H](CO)[C@@H](O[C@@H]7O[C@@H](C)[C@H](O)[C@@H](O)[C@H]7O)[C@H](O)[C@H]6O)CC[C@]5(C)[C@H]4CC[C@]3(C)[C@H]1[C@@H]2C"
  class name: "n"

Please let me know if Cc1cc2c(F)c(Oc3ncnn4cc(OC[C@@H](C)OC(=O)[C@H](C)N)c(C)c34)ccc2[nH]1 shows cell viability below 90%. n

Quick check: cell viability of O=C(Nc1nccs1)C(c1cc(F)ccc1O)N1Cc2ccccc2C1=O (stereo not drawn) under 90%? n

Is the reported cell viability for Cc1cccc(CC(=O)N2CCc3c2ccc(-c2cn(C)c4ncnc(N)c24)c3F)n1 strictly below 90%? y

Find out if reported cell viability for OC(c1cc(-c2ccc(Cl)cc2)nc2ccccc12)C1CCCCN1 (stereo not drawn) is less than 90% y

Dear colleague, could you confirm whether cell viability of CCNC(=O)c1[nH]nc(-c2cc(Cl)c(O)cc2O)c1-c1ccc(OC)cc1 falls below 90%? Thanks. y

Please determine if S=C(NCc1ccc2c(c1)OCO2)N1CCN(c2ncnc3c2oc2ccccc23)CC1 is below 90% in terms of cell viability. y

Answer whether the compound CS(=O)(=O)c1ccc(-c2cnc(NCc3ccco3)n3cnnc23)cc1 has cell viability strictly less than 90% n

Please state whether cell viability is below 90% for Cc1nccn1CC1CCc2c(c3ccccc3n2C)C1=O (stereo not drawn) [Ondansetron Hydrochloride Dihydrate] n

is_below(cell viability, 90%) for O=C(Nc1nc2cccc(-c3ccc(CN4CCS(=O)(=O)CC4)cc3)n2n1)C1CC1 ? y

Threshold test, cell viability < 90%: O=[N+]([O-])c1cn2c(n1)OC[C@@H](OCc1ccc(OC(F)(F)F)cc1)C2 n

Could you please tell me whether cell viability recorded for CCCCCCCCCCCCCC(=O)OCC(COC(=O)CCCCCCCCCCCCC)OC(=O)CCCCCCCCCCCCC is less than 90%? n

is_below(cell viability, 90%) for O=C(NC[C@H](O)CN1CCc2ccccc2C1)c1cc(NC2COC2)ncn1 ? n

---

Task for the reader: assign each of the following molecules its reported cell viability.
test system: MARIMO; experiment: cell viability relative to vehicle control; higher = less cytotoxic; settings: 10 µM; SRSF2 genotype: SRSF2 wt/wt
Structures can show the parent of a compound that is named as a salt.
Answers are plain numbers, in %.

Sample answers from the record:
- molecule: "CCN(CC)CC#CCOC(=O)C(O)(c1ccccc1)C1CCCCC1 (stereo not drawn) [Oxybutynin (Ditropan)]"
  recorded measurement: 95.9
- molecule: "COc1ccc(C(NC(=O)c2cnc(-c3cccnn3)[nH]c2=O)c2ccc(OC)cc2)cc1"
  recorded measurement: 99.6
- molecule: "O=C(c1ccccc1)C(O)O [Phenylglyoxal hydrate]"
  recorded measurement: 86.1
- molecule: "Cc1ccccc1C(OCCN(C)C)c1ccccc1 (stereo not drawn) [Orphenadrine citrate (Norflex)]"
  recorded measurement: 97.3
- molecule: "C=CCn1c(=O)c2cnc(Nc3ccc(N4CCN(C)CC4)cc3)nc2n1-c1cccc(C(C)(C)O)n1"
  recorded measurement: 6.8
- molecule: "Nc1c(Br)cc(Br)cc1CN[C@H]1CC[C@H](O)CC1 [Ambroxol]"
  recorded measurement: 96.7
- molecule: "COC(=O)N[C@H](C(=O)N1CCC[C@H]1C(=O)Nc1ccc([C@@H]2CC[C@@H](c3ccc(NC(=O)[C@@H]4CCCN4C(=O)[C@@H](NC(=O)OC)C(C)C)cc3)N2c2ccc(C(C)(C)C)cc2)cc1)C(C)C"
  recorded measurement: 96.3

Let's switch to this molecule now.
The recorded cell viability for entry COC(=O)c1ccc(O)c(OC)c1 [Methyl Vanillate] equals 104

---

tested on: OCI-AML2; assay: cell viability relative to vehicle control; higher = less cytotoxic; settings: 10 µM; SRSF2 genotype: wt/wt
Counter-ions that a name gives are not always drawn.
observation type: cell viability (%)
Give bare numbers, in %.

These recorded examples may help you get a feel for the data.
- compound: "NCC(=O)CCC(=O)O [5-Aminolevulinic acid hydrochloride]"
  unit symbol: "%"
  cell viability: 96.3
- compound: "COc1ccc2c3c1O[C@H]1C[C@@H](O)C=C[C@@]31CCN(C)C2"
  unit symbol: "%"
  cell viability: 95
- compound: "CC(C)c1cnn2c(NCc3ccccc3-n3cccn3)nc(OC3CCCNC3)nc12 (configuration not stated)"
  unit symbol: "%"
  cell viability: 1.89

Please state, for each entry, its recorded cell viability.
1. COc1c(C)c(C(=O)c2ccc(N)c(C(=O)O)c2)n2ccccc12
2. C[C@@H]1CN(c2c(F)c(N)c3c(=O)c(C(=O)O)cn(C4CC4)c3c2F)C[C@H](C)N1
3. COc1ccc(Oc2cc(C)c(-c3csc(NC(=O)c4ccncc4)n3)c(C)c2)cc1
4. COc1cc(Nc2ncc(F)c(Nc3ccc4c(n3)N(COP(=O)(O)O)C(=O)C(C)(C)O4)n2)cc(OC)c1OC [R788 (Fostamatinib)]
5. Cc1cc(C(C)(C)C)cc(C)c1CC1=NCCN1 [Xylometazoline HCl]
6. Cc1ccc(C=O)o1
7. Cc1cc(-c2ccc(CC(=O)Nc3ccc(-c4cccnc4)cc3)cc2)ccn1
8. NC(=O)N/N=C/c1ccc([N+](=O)[O-])o1

1. 106
2. 105
3. 32.2
4. 21.2
5. 99.7
6. 103
7. 78.9
8. 103

Give cell viability for all compounds that follow.
1. C[N+]12CCc3cc4c(cc3C1(O)Cc1ccc3c(c1C2)OCO3)OCO4 (configuration not stated) [Hydroprotopine]
2. O=[N+]([O-])c1ccc(Nc2ccccc2-c2ccccc2)c2nonc12
3. O=c1cc(-c2ccc(O)c(O)c2)oc2c([C@@H]3O[C@H](CO)[C@@H](O)[C@H](O)[C@H]3O)c(O)cc(O)c12

[99, 107, 100]

Each of the following entries comes with a recorded value; kindly state cell viability for each.
1. C=CC(=O)Nc1ccc2ncnc(Nc3cccc(Br)c3)c2c1
2. O=C(O)COc1ccc(Br)cc1C=C1SC(=S)N(Cc2cccnc2)C1=O [Skp2 inhibitor C1 (SKPin C1)]
3. COc1ccc(CNc2nc(N3CCC[C@H]3CO)ncc2C(=O)NCc2ncccn2)cc1Cl
4. COC[C@H]1C[C@@H](c2nc(-c3ccc4c(c3)COc3cc5c(ccc6nc([C@@H]7CC[C@H](C)N7C(=O)[C@@H](NC(=O)OC)C(C)C)[nH]c65)cc3-4)c[nH]2)N(C(=O)[C@H](NC(=O)OC)c2ccccc2)C1
5. CCOc1cc([C@@H](CS(C)(=O)=O)N2C(=O)c3cccc(NC(C)=O)c3C2=O)ccc1OC

[50.9, 9.12, 105, 93.6, 94.7]

Dear reader, for each entry below, please note its cell viability.
1. Cc1ccc(NCCN(C)CCNc2ccnc3cc(Cl)ccc23)c2c(=O)c3ccccc3sc12
2. COc1cccc(-c2c(C)n(Cc3c(F)cccc3C(F)(F)F)c(=O)n(C[C@H](NCCCC(=O)O)c3ccccc3)c2=O)c1F [Elagolix Sodium]
3. CN[C@@H]1[C@H](O)[C@H](NC)[C@H]2O[C@@]3(O)C(=O)C[C@@H](C)O[C@H]3O[C@@H]2[C@H]1O [Spectinomycin 2HCl]
4. NC(=O)c1ccc(-c2nc(-c3ccc4c(c3)OCCO4)c(-c3ccccn3)[nH]2)cc1
5. C[C@@H]1O[C@@H](O[C@H]2[C@H](Oc3cc(O)c(C(=O)CCc4ccc(O)cc4)c(O)c3)O[C@H](CO)[C@@H](O)[C@@H]2O)[C@H](O)[C@H](O)[C@H]1O [Naringin Dihydrochalcone (Naringin DC)]
6. CCCCOc1ccc(C(=O)CCN2CCCCC2)cc1 [Dyclonine hydrochloride]
7. C#CCC(Cc1cnc2nc(N)nc(N)c2n1)c1ccc(C(=O)N[C@@H](CCC(=O)O)C(=O)O)cc1 (some centres not stated) [Pralatrexate(Folotyn)]
8. N[C@@H](C(=O)N[C@@H]1C(=O)N2C(C(=O)O)=C(Cl)CS[C@H]12)c1ccccc1

84
104
94.4
96.8
111
64.2
104
123

# map each compound to its cell viability
1. O=C(c1ccc(OCCCc2c[nH]cn2)cc1)C1CC1 [Ciproxifan Maleate]
2. CC(C)=CCC[C@](C)(O[C@@H]1O[C@H](CO)[C@@H](O)[C@H](O)[C@H]1O)[C@H]1CC[C@]2(C)[C@@H]1[C@H](O)C[C@@H]1[C@@]3(C)CC[C@H](O)C(C)(C)[C@@H]3[C@@H](O)C[C@]12C [Ginsenoside F1]
3. CCC1(c2c[nH]cn2)Cc2ccccc2C1 [Atipamezole]
4. O=C(NCCCn1ccnc1)c1cc(-c2ccco2)on1
5. O=c1[nH]cnc2ccccc12 [4-Hydroxyquinazoline]

1: 83.4; 2: 106; 3: 89.7; 4: 72.6; 5: 92.6
